Target: recombinant human ULK1 protein (1-649) (Homo sapiens)
Construct: recombinant human ULK1 protein (1-649, SignalChem #U01-11G); purchased SignalChem U01-11G
Assay: ULK1 inhibition assay (ADP Glo)
Type: biochemical
Settings: Table 2
pIC50: −log10 of the molar value.
For each entry below, report its pIC50 value.

Record request: pIC50 value, item `COC(=O)c1ccccc1Oc1nc(Nc2ccc(N3CCN(C)CC3)cc2)ncc1Br`
> 7.00

Consider the compound `Oc1nc(Nc2ccc3c(c2)OCO3)ncc1C(F)(F)F` and give its measured pIC50.
< 6.00

Please report the recorded pIC50 for `COc1cc(Nc2ncc(Br)c(Oc3ccccc3C(=O)N3CCOCC3)n2)cc(OC)c1OC` .
< 6.00

# query: pIC50 of entry `COC(=O)c1ccccc1Oc1nc(Nc2cc(OC)c(OC)c(OC)c2)ncc1Br`
> 7.00

Dear colleague, I am looking for the recorded pIC50 of the following compound: `COc1cc(Nc2ncc(Br)c(Oc3ccccc3C(=O)N(C)CC#N)n2)cc(OC)c1OC`
6.00 to 7.00

###

Molecular target: recombinant human ULK1 protein (1-649) (Homo sapiens, UniProt O75385)
Construct: recombinant human ULK1 protein (1-649, SignalChem #U01-11G); purchased SignalChem U01-11G
Assay: ULK1 inhibition assay (ADP Glo)
Format: biochemical
Details: Table 2
pIC50: −log10 of the molar value.
PARAMETER: pIC50

Using the record for CNC(=O)c1ccccc1Oc1nc(Nc2ccc3c(c2)OCCO3)ncc1C(F)(F)F [Compound B51] , report its pIC50.
< 6.00

Requested read-out: pIC50. Entry: COC(=O)c1ccccc1Oc1nc(Nc2ccc(OC)c(OC)c2)ncc1Br [Compound B17]
< 6.00

What does the data say about its pIC50? Entry: COc1cc(Nc2ncc(Br)c(Oc3ccccc3C(=O)N3CCN(C)CC3)n2)cc(OC)c1OC [Compound B44]
< 6.00

Which pIC50 reading was recorded for the compound COc1cc(Nc2ncc(Br)c(Oc3ccccc3C(=O)N(C)CCO)n2)cc(OC)c1OC [Compound B3] ?
6.00 to 7.00

###

For each entry below, report its IC50 value.
Target: recombinant human ULK1 protein (1-649) (Homo sapiens)
Construct: recombinant human ULK1 protein (1-649, SignalChem #U01-11G); purchased SignalChem U01-11G
Experiment: ULK1 inhibition assay (ADP Glo)
Format: biochemical
Settings: Table 1; 25 uM ATP, MBP substrate, one hour

// query IC50 value for entry CN1CCc2cc(Nc3nccc(NC4CC4)n3)ccc2C1 [Compound A72]
> 10 nM

What does the data say about its IC50? Entry: FC(F)(F)c1cnc(Nc2ccc3c(c2)CCN(CC2OCCO2)C3)nc1NC1CC1 [Compound A17]
< 1 nM

Name the recorded IC50 for FC(F)(F)c1cnc(Nc2ccc3c(c2)CCN(Cc2ccc[nH]2)C3)nc1NC1CC1 [Compound A93] .
1 to 10 nM

Suppose we examine the compound CN(C)C(=O)CN1CCc2cc(Nc3ncc(C(F)(F)F)c(NC4CC4)n3)ccc2C1 [Compound A74] ; what IC50 value has been reported?
< 1 nM

Which IC50 is listed for COCCN1CCc2cc(Nc3ncc(C(F)(F)F)c(NC(C)C)n3)ccc2C1 [Compound A122] ?
1 to 10 nM

###

I'd appreciate it if you could supply pIC50 values for the items below.
Target: NanoLuc®-ULK1 Fusion (Homo sapiens)
Construct: host or cells: HEK293T
Sequence (O75385 1-1050): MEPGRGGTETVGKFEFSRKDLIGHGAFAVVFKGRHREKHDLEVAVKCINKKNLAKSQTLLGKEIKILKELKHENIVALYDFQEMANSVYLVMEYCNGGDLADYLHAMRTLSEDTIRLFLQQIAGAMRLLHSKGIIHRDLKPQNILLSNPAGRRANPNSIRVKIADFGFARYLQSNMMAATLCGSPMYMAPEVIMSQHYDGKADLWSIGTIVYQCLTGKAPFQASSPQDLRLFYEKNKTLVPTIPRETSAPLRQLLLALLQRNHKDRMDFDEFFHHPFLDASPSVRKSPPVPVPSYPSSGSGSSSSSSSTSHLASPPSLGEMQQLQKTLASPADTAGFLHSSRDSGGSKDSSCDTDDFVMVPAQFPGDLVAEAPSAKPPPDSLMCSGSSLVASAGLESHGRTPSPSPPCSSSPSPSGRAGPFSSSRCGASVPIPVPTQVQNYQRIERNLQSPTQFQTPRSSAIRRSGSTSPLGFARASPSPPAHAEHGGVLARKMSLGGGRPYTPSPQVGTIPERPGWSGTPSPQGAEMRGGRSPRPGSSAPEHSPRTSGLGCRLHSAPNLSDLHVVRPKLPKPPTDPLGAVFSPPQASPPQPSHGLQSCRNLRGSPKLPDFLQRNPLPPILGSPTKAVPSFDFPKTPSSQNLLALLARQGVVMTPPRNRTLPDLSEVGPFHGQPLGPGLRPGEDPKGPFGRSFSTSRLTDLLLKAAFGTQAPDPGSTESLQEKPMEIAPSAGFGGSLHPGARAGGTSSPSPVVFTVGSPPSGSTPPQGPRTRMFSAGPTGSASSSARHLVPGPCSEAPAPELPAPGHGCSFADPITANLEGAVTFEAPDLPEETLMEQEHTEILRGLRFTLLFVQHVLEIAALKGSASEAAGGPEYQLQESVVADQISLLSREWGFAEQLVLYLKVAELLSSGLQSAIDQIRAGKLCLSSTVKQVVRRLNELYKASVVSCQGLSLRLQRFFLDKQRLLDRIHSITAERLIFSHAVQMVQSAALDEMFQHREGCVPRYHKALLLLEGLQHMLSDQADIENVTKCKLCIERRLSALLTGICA
Test: ULK1 NanoBRET assay in HEK293T cells
Type: cell-based
Conditions: Table 3
pIC50: −log10 of the molar value.

Under NanoLuc®-ULK1 Fusion (Homo sapiens): pIC50 value of CNC(=O)c1ccccc1Nc1nc(Nc2ccc3c(c2)OCCO3)ncc1C(F)(F)F [Compound E7] ?
< 7.00

Hi! What's the reported pIC50 for CNC(=O)c1ccccc1Nc1nc(Nc2cc(OC)c(OC)c(OC)c2)ncc1C#N [Compound E9] on NanoLuc®-ULK1 Fusion (Homo sapiens)?
> 7.00

Reported pIC50 for NanoLuc®-ULK1 Fusion (Homo sapiens), given CNC(=O)c1ccccc1Nc1nc(Nc2cc(OC)c(OC)c(OC)c2)ncc1C [Compound E11] ?
< 7.00

Notebook: pull reported pIC50 for NanoLuc®-ULK1 Fusion (Homo sapiens), entry CNC(=O)c1ccccc1Nc1nc(Nc2ccc3c(c2)OCO3)ncc1Br [Compound E5]
< 7.00

Notebook: pull reported pIC50 for NanoLuc®-ULK1 Fusion (Homo sapiens), entry CNC(=O)c1ccccc1Nc1nc(Nc2ccc3c(c2)OCO3)ncc1C(F)(F)F [Compound E6]
< 7.00

# value lookup — system NanoLuc®-ULK1 Fusion (Homo sapiens), readout pIC50, item CNC(=O)c1ccccc1Nc1nc(Nc2ccc3c(c2)OCCO3)ncc1Br [Compound E4]
< 7.00

Could you share what pIC50 was measured for CNC(=O)c1ccccc1Nc1nc(Nc2cc(OC)c(OC)c(OC)c2)ncc1I [Compound E13] , tested on NanoLuc®-ULK1 Fusion (Homo sapiens)?
> 7.00

Record lookup: for NanoLuc®-ULK1 Fusion (Homo sapiens), what pIC50 belongs to CNC(=O)c1ccccc1Nc1nc(Nc2cc(OC)c(OC)c(OC)c2)ncc1F [Compound E12] ?
< 7.00

Give the reported pIC50 for CNC(=O)c1ccccc1Nc1nc(Nc2cc(OC)c(OC)c(OC)c2)ncc1C1CC1 [Compound E10] (system: NanoLuc®-ULK1 Fusion (Homo sapiens)).
< 7.00

###

Molecular target: recombinant human ULK1 protein (1-649) (Homo sapiens)
Construct: recombinant human ULK1 protein (1-649, SignalChem #U01-11G); purchased SignalChem U01-11G
Assay: ULK1 inhibition assay (ADP Glo)
Format: biochemical
Details: Table 1; 25 uM ATP, MBP substrate, one hour
pIC50: −log10 of the molar value.
Answer each item with its documented pIC50.

Quick one: pIC50 of O=C(O)CCN1CCc2cc(Nc3ncc(C(F)(F)F)c(NC4CC4)n3)ccc2C1 [Compound A7] ?
> 9.00

Look up pIC50: FC(F)(F)c1cnc(Nc2ccc3c(c2)CN(C2COC2)CC3)nc1NC1CC1 [Compound A102]
8.00 to 9.00

I'd like to know its pIC50. The molecule in question is CNC(=O)c1ccccc1Nc1nc(Nc2ccc3c(c2)CCN(C(=O)N2CCN(C)CC2)C3)ncc1Br [Compound A128]
< 8.00

pIC50 lookup needed for CNC(=O)c1ccccc1Nc1nc(Nc2ccc3c(c2)CCN(CCC(=O)O)C3)ncc1Br [Compound A141] , thanks.
< 8.00

Which measured pIC50 value corresponds to CC(C)(C)OC(=O)N1CCc2cc(Nc3ncc([N+](=O)O)c(NC4CC4)n3)ccc2C1 [Compound A21] ?
< 8.00

Name the reported pIC50 value associated with the molecule FC(F)(F)c1cnc(Nc2ccc3c(c2)CNC3)nc1NC1CC1 [Compound A55]
> 9.00
